Target: T1, Soluble heterodimeric CD3 protein (hCD3-epsilon/hCD3-delta) with either a human Fc tag (hFcΔAdp/hFc) or a … (human, UniProt P07766 23-126; P04234 22-105)
T1 construct: also called hCD3ε/δ; not shown: Fc tag: human (hFcΔAdp/hFc)
T1 sequence (P07766 23-126 limits assumed, stated change not applied, chain 1 of 2): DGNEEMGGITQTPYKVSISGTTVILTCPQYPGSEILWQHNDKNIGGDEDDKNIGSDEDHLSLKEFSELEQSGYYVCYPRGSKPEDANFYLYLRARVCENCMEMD
T1 sequence (P04234 22-105 limits assumed, stated change not applied, chain 2 of 2): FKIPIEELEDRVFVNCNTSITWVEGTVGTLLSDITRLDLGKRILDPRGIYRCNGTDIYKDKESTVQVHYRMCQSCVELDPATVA
Experiment: SPR Biacore 25C antigen-capture
Observation Type: T½ (min)
Kindly provide the numeric value in min only, without the unit symbol.

- Binder: "H1H5799P (antibody, human IgG1, V domains shown, H1H: human IgG1 Fc; divalent) VH: QVQLVQSGAEVKKPGASVKVSCKASGYTFIGYYMHWVRQAPGQGLEWMGWINPKSGGTNYAQKFQGRVTMTGDTSISTAYMELSRLRSDDTAVFYCARMGDGAMFDYWGQGTLVTVSS VL: DIQMTQSPSSLSASVGDRVTITCRASQRISSYLNWYQQKAGKAPKVLIYTASSLQSGVPSRFSGSGSGTDFTLTISSLQPEDFATYYCQQSYSTPLTFGGGTKVEIK"
  Unit Text: "min"
  T½: 2
- Binder: "H2M2710N (antibody, V domains shown, H2M: mouse IgG2 Fc, human variable regions; divalent) VH: QVQLVESGGGVVQPGRSLRLSCAASGFTFRSFGMHWVRQAPGRGLEWVAMIYFDGKNKYYADSVRGRFTISRDNSKNTLYLEMSSLRAEDTAVYFCARGPGYNWLDPWGQGTLVTVSS VL: EIVMTQSPATLSVSPGERATLSCRASQSVSRNLAWYQQKPGQAPRLLIYGASTRATGVPARFSGSGSGTEFTLTISSLQSEDFAVFHCQQYNNRPLTFGGGTEVEIK"
  Unit Text: "min"
  T½: 48
- Binder: "H1M2712N (antibody, mouse IgG1, V domains shown, H1M: mouse IgG1 Fc; divalent) VH: EVQLVESGGGLVQPGGSLRLSCAATGFTFDDFTMHWVRQAPGKGLEWVSGISWNSGSIGYVDSVKGRFTISRDNAKNSLYLQMNSLRAEDTALYYCAKDNSGYGYYYYGMDVWGQGTTVTVSS VL: EIVMTQSPATLSVSPGERATLSCRASHSVSRNSAWYQQKPGQAPRLLIYGASTRATGIPARFSGSGSGTEFTLTISSLQSEDFAIYYCQQYNNWPLTFGGGTKVEIK"
  Unit Text: "min"
  T½: 846

Check the records and state T½ for H1H5764P (antibody, human IgG1, V domains shown, H1H: human IgG1 Fc; divalent) VH: QVQLVESGGGVVQPGRSLRLSCAASGFTFRSFGMHWVRQAPGKGLEWVAVISYDGNYKYYADSVKGRFTISRDNSKNTLYLQMNSLRAEDTAVHYCAKGAMVRGVPYNFYYGMDVWGQGTTVTVSS VL: DIQMTQSPSSLSASVGDRVTITCRASQVIRNDLGWYQQKPGKAPKRLIYAASSLQSGIPSRFSGSGSGTEFTLTISSLQPEDFATYYCLQHNSYPYTFGQGTKLEIK
2

Input H1H5790B (antibody, human IgG1, V domains shown, H1H: human IgG1 Fc; divalent) VH: EVQLVESGGGVVQPGRSLRLSCAASGFTFSYYGMHWVRQAPGKGLEWVAVISFDGKNKYYADSVMGRFTISRDNSKNTLYLQMNSLRAEDSAVFFCARSYDILTGYGAGYSYHYGMDVWGQGTTVTVSS VL: AIQMTQSPSSLSASVGDRVTITCRASQRISSFLNWYQQKPGKAPKLLIYTASNLQNGVPSRFSGSGSGTDFTLTISSLQPEDFATYYCQQSYRTPLTFGGGTKVEIKR , output reported T½.
49

Respond only with T½ recorded for H1H5795B (antibody, human IgG1, V domains shown, H1H: human IgG1 Fc; divalent) VH: EVQLVESGAEVKKPGASVKVSCKTSGYSFIGYYIHWMRQAPGQGLEWMGWINPKSGVTNYAQRFQGRVTMTRDTSISTAYMELSRLKSDDTAVYFCARMGDGAVFDFWGQGTLVTVSS VL: DIQLTQSPSSLSASVGDRVTITCRASQRISSFLNWYQQKPGKVPKLLIYTASNLQNGVPSRFSGTGSGTDFTLTISSLQPEDFATYYCQQSYRTPLTFGGGTKVDIKR
50

Tell me T½ reported for H2M2711N (antibody, V domains shown, H2M: mouse IgG2 Fc, human variable regions; divalent) VH: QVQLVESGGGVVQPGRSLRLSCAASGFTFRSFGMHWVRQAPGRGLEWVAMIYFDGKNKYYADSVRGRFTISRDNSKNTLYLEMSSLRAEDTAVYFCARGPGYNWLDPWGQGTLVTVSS VL: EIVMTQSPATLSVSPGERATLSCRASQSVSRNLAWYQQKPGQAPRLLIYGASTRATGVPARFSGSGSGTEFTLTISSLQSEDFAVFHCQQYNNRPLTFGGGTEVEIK
48

Fill in T½ for record H1H5755B (antibody, human IgG1, V domains shown, H1H: human IgG1 Fc; divalent) VH: EVQLVESGGGVVQPGRSLRLSCAASGFTFSNYGMHWVRQAPGKGLEWVTVILHDGSYKYYADSVKGRFTISRDNSKNTLHLQMNSLRTEDTAVYYCAKGPMFRGVPYNHYYGMDVWGQGTTVTVSS VL: DIQMTQSPSSLSASVGDRVTITCRASQGIRNDLGWYQQKPGKAPKRLIYAASSLQSGVSSRFSGSGSGTEFTLTISSLQPEDFATYYCLQHNSYPYTFGQGTKVEIKR
57

Give the reported value of T½ for this record: H1H5781P (antibody, human IgG1, V domains shown, H1H: human IgG1 Fc; divalent) VH: EVQLVESGGGLVQPGRSLRLSCAASGFTFDDFTMHWVRQAPGKGLEWVSDISWNSGSIDYADSVKGRFTISRDNARNSLFLQMSSLRTEDTASYYCIKDKSGYGSYNYGLDVWGQGTTVTVSS VL: EIVLTQSPGTLSLSPGDRATLSCRASQSVSSIYLAWYQQKPGQAPRLLIHGASTRATGIPDRFSGSGSGTDFTLTISRLEPEDFALYYCHQRVSSPYTFGQGTKLEIK
43

Fill in T½ for record H1H5758B (antibody, human IgG1, V domains shown, H1H: human IgG1 Fc; divalent) VH: EVQLVESGGGVVQPGRSLRLSCAASGFTFSSYGMHWVRQAPGKGLEWVTVILHDGSNRYYADSVKGRFTISRDNSKNTLYLQMNILRAEDTAVYYCTKGAMVRGVPYNHYYGMDVWGQGTTVTVSS VL: DIVMTQSPSSLSASVGDRVTITCRASQGIRNDLGWYQQKPGKAPKRLIYAASNLQSGVPSRFSGSGSGTEFTLTISSLQPEDFATYYCLQHNSYPYTFGQGTKLEIKR
21
